# procedure.text: Half life in RjOrl:SWISS (CD1) mouse plasma at 20 mg/kg, ip
# Assay type: ADME, organism-based
measure.name: half-life (min)
Your answer should be a plain number; it is taken to be in min.

Request: Provide measured half-life value, entry: C=CC(=O)N1CCC[C@@H](n2nc(-c3cn(C)c4ccccc34)c3c(N)ncnc32)C1
Response: 14.4

###

# Test system: NCI-H1975
# procedure.text: cells
# Type: functional, cell-based
# condition.context: Homo sapiens
Recorded log10 of EC50 by entry
The base-10 logarithm of EC50, taken with EC50 in µM, is what appears here.

# annotated cases, reported log10 of EC50 shown
> print(dat)
                               query.smiles        tgt   measure.name  result.value
1  CN(C)C/C=C/C(=O)N1CCC[C@@H](n2nc(-c3ccccc3)c3c(N)ncnc32)C1  NCI-H1975  log10 of EC50          1.48
2  C=CC(=O)N1CCC[C@@H](n2nc(C#CCC3CCCC3)c3c(N)ncnc32)C1  NCI-H1975  log10 of EC50          0.84
3  C=CC(=O)N1CCC[C@@H](n2nc(-c3ccccc3)c3c(N)ncnc32)C1  NCI-H1975  log10 of EC50          0.56
4  C=CC(=O)N1CCC[C@@H](n2nc(-c3ccc4ccccc4c3)c3c(N)ncnc32)C1  NCI-H1975  log10 of EC50         -0.85
5  C=CC(=O)Nc1cccc(Oc2nc(Nc3ccc(N4CCN(C)CC4)cc3OC)ncc2Cl)c1  NCI-H1975  log10 of EC50         -1.05

Request: Provide measured log10 of EC50 value, entry: C=CC(=O)N1CCC[C@@H](n2nc(C#CC3CCCC3)c3c(N)ncnc32)C1
Response: 0.92

Request: Provide measured log10 of EC50 value, entry: C=CC(=O)N1CCC[C@@H](n2nc(-c3cccc(F)c3)c3c(N)ncnc32)C1
Response: 0.53

Request: Provide measured log10 of EC50 value, entry: C=CC(=O)N1CCC[C@@H](n2nc(-c3ccc(F)c4ccccc34)c3c(N)ncnc32)C1
Response: -0.44

Request: Provide measured log10 of EC50 value, entry: CN(C)C/C=C/C(=O)N1CCC[C@@H](n2nc(-c3cccc(C(F)(F)F)c3)c3c(N)ncnc32)C1
Response: 1.31

Request: Provide measured log10 of EC50 value, entry: C=CC(=O)N1CCC[C@@H](n2nc(-c3ccc(Oc4ccccc4)cc3)c3c(N)ncnc32)C1
Response: -0.19

###

# procedure.text: Apparent permeability across basolateral to apical side in human Caco2 cells at 5 uM incubated for 2 hrs
# Assay type: ADME, cell-based, Caco-2
# condition.context: Caco-2
measure.name: Papp B→A at 2 h, 5 µM (×10⁻⁶ cm/s)
Your answer should be a plain number; it is taken to be in ×10⁻⁶ cm/s.

# annotated cases, reported Papp B→A at 2 h, 5 µM shown
> print(dat)
                               query.smiles           measure.name  result.value
1  C=CC(=O)N1CCC[C@@H](n2nc(-c3cn(C)c4ccccc34)c3c(N)ncnc32)C1  Papp B→A at 2 h, 5 µM          0.29
2  C=CC(=O)Nc1cc(Nc2nccc(-c3cn(C)c4ccccc34)n2)c(OC)cc1N(C)CCN(C)C  Papp B→A at 2 h, 5 µM          0.06
3  C=CC(=O)N1CCC[C@@H](n2nc(-c3ccc4ccccc4c3)c3c(N)ncnc32)C1  Papp B→A at 2 h, 5 µM          0.13

Proceed to the following item.
Request: Provide measured Papp B→A at 2 h, 5 µM value, entry: C=CC(=O)Nc1cccc(Nc2nc(Nc3ccc(N4CCN(C(C)=O)CC4)cc3OC)ncc2C(F)(F)F)c1
Response: 0.068
